Record form. Attribute: TGI. Fill in for each entry.
test system: SF-539 CNS; assay: NCI tumour cell line growth inhibition, 48 h

Under SF-539 CNS: TGI value of O=C(Nc1sccc1S(=O)(=O)c1ccc(Cl)cc1)C(F)(F)F ? 93.7 µM

Under SF-539 CNS: TGI value of CO[C@H]1C[C@@H]2CC[C@@H](C)[C@@](O)(O2)C(=O)C(=O)N2CCCC[C@H]2C(=O)O[C@H]([C@H](C)C[C@@H]2CC[C@@H](OP(C)(C)=O)[C@H](OC)C2)CC(=O)[C@H](C)/C=C(\C)[C@@H](O)[C@@H](OC)C(=O)[C@H](C)C[C@H](C)/C=C/C=C/C=C/1C ? 21.7 µM

Under SF-539 CNS: TGI value of C[C@]12CCC3c4ccc(O)cc4CCC3C1Cc1ccc(O)cc12 (stereo partly drawn) ? 20.8 µM

Under SF-539 CNS: TGI value of COc1c(NC(=O)CC(C)=O)[c]([Hg][O]C(C)=O)c(OC)c(Cl)[c]1[Hg][O]C(C)=O ? 9.7 µM

Under SF-539 CNS: TGI value of NC(CSc1nc2ccccn2c1[N+](=O)[O-])C(=O)O (stereo not drawn) ? > 100 µM

Under SF-539 CNS: TGI value of COc1ccc(/C=C2\SC(c3ccc(OC)cc3)N(NC(=O)Cc3ccccc3)C2=O)cc1 (stereo not drawn) ? > 100 µM

Under SF-539 CNS: TGI value of Cc1ccc2c(c1)SC(c1cc3c(cc1Br)OCO3)S2 (stereo not drawn) ? > 31.6 µM

Under SF-539 CNS: TGI value of CCC1(C(=O)OC)CCc2c(OC)ccc(OC)c2C1=O (stereo not drawn) ? > 100 µM
